Reported values: AC50 for Vasopressin V1a receptor (Homo sapiens), one per item.

{"Compound": "CN1Cc2c(N)cccc2C(c2ccccc2)C1 (stereo not drawn) [NOMIFENSINE]", "Measured endpoint": "AC50", "Meas value": "> 30 µM"}
{"Compound": "O=C(c1cc(Cc2n[nH]c(=O)c3ccccc23)ccc1F)N1CCN(C(=O)C2CC2)CC1 [OLAPARIB]", "Measured endpoint": "AC50", "Meas value": "> 30 µM"}

Next up:
Hey, Vasopressin V1a receptor (Homo sapiens) data for COc1ccc(CN2CCN(C(c3ccc(F)cc3)c3ccc(F)cc3)CC2)c(OC)c1OC [LOMERIZINE] : AC50 came out at > 30 µM

---

Observed AC50 for Adenosine receptor A2a (Homo sapiens, UniProt P29274), reported per entry below.

These solved cases illustrate the format of a correct answer.
{"Molecule": "CCCN1CCCC[C@H]1C(=O)Nc1c(C)cccc1C", "Tgt": "Adenosine receptor A2a (Homo sapiens, UniProt P29274)", "Measured endpoint": "AC50", "Meas value": "> 30 µM"}
{"Molecule": "CNC[C@H](O)c1ccc(O)c(O)c1 [EPINEPHRINE]", "Tgt": "Adenosine receptor A2a (Homo sapiens, UniProt P29274)", "Measured endpoint": "AC50", "Meas value": "> 30 µM"}

// moving on: another record for AC50
Per the record, COc1cc(C(=O)NC2CCCNC2)cc(OC)c1OC (stereo not drawn) [TROXIPIDE] has AC50 of > 30 µM

---

D(3) dopamine receptor (Homo sapiens, UniProt P35462) data, read-out AC50; also: assay procedure not described here
Sequence (P35462 whole entry): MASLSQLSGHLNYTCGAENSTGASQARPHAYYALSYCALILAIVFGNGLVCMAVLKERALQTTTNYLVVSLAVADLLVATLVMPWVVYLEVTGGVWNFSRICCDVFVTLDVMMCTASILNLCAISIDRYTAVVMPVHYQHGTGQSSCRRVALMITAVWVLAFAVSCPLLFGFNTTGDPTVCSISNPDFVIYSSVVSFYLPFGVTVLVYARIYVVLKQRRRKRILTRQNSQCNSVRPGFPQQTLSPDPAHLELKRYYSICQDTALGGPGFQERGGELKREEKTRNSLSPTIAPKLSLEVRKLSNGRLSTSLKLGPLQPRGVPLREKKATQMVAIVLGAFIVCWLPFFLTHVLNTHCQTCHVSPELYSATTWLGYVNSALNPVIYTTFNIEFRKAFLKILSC

{"Molecule": "Cc1onc(-c2c(F)cccc2Cl)c1C(=O)N[C@@H]1C(=O)N2[C@@H]1SC(C)(C)[C@@H]2C(=O)O", "Measured endpoint": "AC50", "Meas value": "> 30 µM"}
{"Molecule": "COc1cc2[nH]c(C)c(CCN3CCN(c4ccccc4)CC3)c2cc1OC", "Measured endpoint": "AC50", "Meas value": "> 10 µM"}
{"Molecule": "CN(C)CCCN1c2ccccc2CCc2ccccc21", "Measured endpoint": "AC50", "Meas value": "0.41 µM"}
{"Molecule": "CNC[C@H](O)c1ccc(O)c(O)c1 [EPINEPHRINE]", "Measured endpoint": "AC50", "Meas value": "8.4 µM"}
{"Molecule": "O=C1c2ccccc2C(=O)C1c1ccccc1", "Measured endpoint": "AC50", "Meas value": "> 30 µM"}
{"Molecule": "O=C(O)c1ccc(NC(=O)[C@H](Cc2ccc(O)cc2)NC(=O)c2ccccc2)cc1 [BENTIROMIDE]", "Measured endpoint": "AC50", "Meas value": "> 30 µM"}

Form: molecule = `O=C(CCCN1CCC(O)(c2ccc(Br)cc2)CC1)c1ccc(F)cc1` ; AC50 = 0.041 µM

Recorded result, `C=CC[N+]1([C@H]2C[C@H]3[C@@H]4CC[C@H]5C[C@H](O)[C@@H](N6CCOCC6)C[C@]5(C)[C@H]4CC[C@]3(C)[C@H]2OC(C)=O)CCCC1` , AC50: > 30 µM

Quick note, AC50 for `CCCN(CCC)S(=O)(=O)c1ccc(C(=O)O)cc1` landed at > 30 µM

---

Entries and their AC50
biological target: D(1A) dopamine receptor (Homo sapiens, UniProt P21728); format: functional, cell-based; also: assay procedure not described here
Sequence (P21728 whole entry): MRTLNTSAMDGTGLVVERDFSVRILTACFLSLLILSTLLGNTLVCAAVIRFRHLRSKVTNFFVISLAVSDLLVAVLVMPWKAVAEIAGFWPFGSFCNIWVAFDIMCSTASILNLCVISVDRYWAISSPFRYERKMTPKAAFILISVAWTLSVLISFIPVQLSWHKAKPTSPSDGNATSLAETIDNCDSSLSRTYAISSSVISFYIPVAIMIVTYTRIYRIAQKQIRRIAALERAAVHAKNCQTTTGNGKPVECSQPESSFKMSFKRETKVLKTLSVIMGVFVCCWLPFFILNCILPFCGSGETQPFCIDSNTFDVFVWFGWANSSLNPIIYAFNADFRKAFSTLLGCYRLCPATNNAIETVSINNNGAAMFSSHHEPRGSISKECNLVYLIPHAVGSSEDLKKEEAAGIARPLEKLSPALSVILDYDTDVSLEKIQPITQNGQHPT

In the examples that follow, each entry is paired with its recorded AC50.
{"Compound structure": "O=c1c(O)c(-c2ccc(O)c(O)c2)oc2cc(O)cc(O)c12", "AC50": "> 10 µM"}
{"Compound structure": "O=C1c2cccc3c2[C@H](CCC3)CN1[C@@H]1CN2CCC1CC2", "AC50": "> 30 µM"}

With those in mind, consider the next compound.
The recorded AC50 for `C[N+](C)(C)CCOP(=O)([O-])OC[C@H](O)CO` is > 30 µM
